Below, each of the compounds is paired with its reported EC50 value.
Test system: DAN-G
Assay: CellTiter-Glo luminescent cell viability (proliferation) assay, DAN-G
Format: cell-based
Details: DAN-G (human pancreatic carcinoma) proliferation, 48 hours incubation, 10% FCS

>  <compound>
O=C(CC1C=Nc2ccccc21)N1CCC(c2nc(C(=O)N3CCN(c4ncccn4)CC3)cs2)CC1 (centres unmarked)

>  <value unit>
µM

>  <EC50>
18.2

$$$$
>  <compound>
Cc1ccc2cc(NC(=O)c3csc(C4CCN(C(=O)CC5C=Nc6ccccc65)CC4)n3)ccc2n1 (centres unmarked)

>  <value unit>
µM

>  <EC50>
6.9

$$$$
>  <compound>
Cc1nc(C)c(C(=O)N2CCC(c3nc(C(=O)NC4C=C(c5cccs5)N=N4)cs3)CC2)s1 (centres unmarked)

>  <value unit>
µM

>  <EC50>
7.99

$$$$
>  <compound>
CC(C)(Cc1ccc(F)cc1)NC(=O)c1csc(C2CCN(C(=O)CC3C=Nc4ccccc43)CC2)n1 (centres unmarked)

>  <value unit>
µM

>  <EC50>
11.2

$$$$
>  <compound>
COc1ccc(NC(=O)c2csc(C3CCN(C(=O)NC4C=C(c5ccccc5)N=N4)CC3)n2)cn1 (centres unmarked)

>  <value unit>
µM

>  <EC50>
8.9

$$$$
